What %-inhibition of RSK4 was measured for each of the following?
Molecular target: panel of more than 300 wild-type and mutant kinases (313 kinase panel) (Homo sapiens, UniProt Q9UK32)
Sequence (Q9UK32 whole entry, change not shown): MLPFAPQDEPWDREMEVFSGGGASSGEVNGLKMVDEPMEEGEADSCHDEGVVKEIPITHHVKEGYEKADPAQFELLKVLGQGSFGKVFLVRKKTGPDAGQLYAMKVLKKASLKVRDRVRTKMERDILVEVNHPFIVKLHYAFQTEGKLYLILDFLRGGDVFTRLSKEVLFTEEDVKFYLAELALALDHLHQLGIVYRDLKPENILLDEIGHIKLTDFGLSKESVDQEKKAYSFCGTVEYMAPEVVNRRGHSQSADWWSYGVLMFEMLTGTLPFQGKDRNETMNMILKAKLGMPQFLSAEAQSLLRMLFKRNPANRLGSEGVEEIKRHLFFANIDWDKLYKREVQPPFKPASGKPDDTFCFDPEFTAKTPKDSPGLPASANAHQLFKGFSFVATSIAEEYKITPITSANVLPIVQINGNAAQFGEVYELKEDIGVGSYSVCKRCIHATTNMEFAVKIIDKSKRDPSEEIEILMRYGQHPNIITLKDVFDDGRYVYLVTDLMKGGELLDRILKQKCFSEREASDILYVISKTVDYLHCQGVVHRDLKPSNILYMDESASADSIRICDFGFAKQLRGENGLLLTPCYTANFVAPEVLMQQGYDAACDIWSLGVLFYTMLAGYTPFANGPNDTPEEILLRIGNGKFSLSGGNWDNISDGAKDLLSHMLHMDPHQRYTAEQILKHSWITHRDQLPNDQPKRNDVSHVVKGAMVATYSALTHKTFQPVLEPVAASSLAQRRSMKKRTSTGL
Experiment: Kinase profiling in a biochemical assay panel (mobility shift assays and ELISA), %-inhibition at 1 μM; selectivity entropy
Settings: kinase RSK4; 1 μM
Give bare numbers, in %.

COMPOUND	ENDPOINT VALUE
CO[C@H]1C[C@@H]2CC[C@@H](C)[C@@](O)(O2)C(=O)C(=O)N2CCCC[C@H]2C(=O)O[C@H]([C@H](C)C[C@@H]2CC[C@@H](OCCO)[C@H](OC)C2)CC(=O)[C@H](C)/C=C(\C)[C@@H](O)[C@@H](OC)C(=O)[C@H](C)C[C@H](C)/C=C/C=C/C=C/1C	-8
C[C@@H](Oc1cc(-c2cnn(C3CCNCC3)c2)cnc1N)c1c(Cl)ccc(F)c1Cl	-1.58
Cc1cn(-c2cc(NC(=O)c3ccc(C)c(Nc4nccc(-c5cccnc5)n4)c3)cc(C(F)(F)F)c2)cn1	11
Cc1ccc(Nc2nccc(N(C)c3ccc4c(C)n(C)nc4c3)n2)cc1S(N)(=O)=O	10
CC(=O)Nc1cccc(-n2c(=O)n(C3CC3)c(=O)c3c(Nc4ccc(I)cc4F)n(C)c(=O)c(C)c32)c1	0.208

Here are 3 compounds. What values of %-inhibition of RSK4 were reported for them?
1. N#CC[C@H](C1CCCC1)n1cc(-c2ncnc3[nH]ccc23)cn1
2. CNC(=O)c1cc(Oc2ccc(NC(=O)Nc3ccc(Cl)c(C(F)(F)F)c3)c(F)c2)ccn1
3. O=S(=O)(c1cccc2cnccc12)N1CCCNCC1

Response:
3.16
-1.19
16

====

What %-inhibition of PDHK4 was measured for each of the following?
Target: panel of more than 300 wild-type and mutant kinases (313 kinase panel) (Homo sapiens)
Experiment: Kinase profiling in a biochemical assay panel (mobility shift assays and ELISA), %-inhibition at 1 μM; selectivity entropy
Conditions: kinase PDHK4; 1 μM
Give bare numbers, in %.

Consider the following illustrative entries.
COMPOUND	ENDPOINT LABEL	ENDPOINT VALUE
CS(=O)(=O)CCNCc1ccc(-c2ccc3ncnc(Nc4ccc(OCc5cccc(F)c5)c(Cl)c4)c3c2)o1	%-inhibition of PDHK4	-4.31
CC(C)(C)c1nc(-c2cccc(NS(=O)(=O)c3c(F)cccc3F)c2F)c(-c2ccnc(N)n2)s1	%-inhibition of PDHK4	-1
CC(=O)Nc1cccc(-n2c(=O)n(C3CC3)c(=O)c3c(Nc4ccc(I)cc4F)n(C)c(=O)c(C)c32)c1	%-inhibition of PDHK4	-1.65
CO[C@H]1C[C@@H]2CC[C@@H](C)[C@@](O)(O2)C(=O)C(=O)N2CCCC[C@H]2C(=O)O[C@H]([C@H](C)C[C@@H]2CC[C@@H](OC(=O)C(C)(CO)CO)[C@H](OC)C2)CC(=O)[C@H](C)/C=C(\C)[C@@H](O)[C@@H](OC)C(=O)[C@H](C)C[C@H](C)/C=C/C=C/C=C/1C	%-inhibition of PDHK4	-1.83
Cc1ccc(Nc2nccc(N(C)c3ccc4c(C)n(C)nc4c3)n2)cc1S(N)(=O)=O	%-inhibition of PDHK4	-1

Prompt: Fill blank: measured %-inhibition of PDHK4 of the compound COc1cc2nccc(Oc3ccc(NC(=O)C4(C(=O)Nc5ccc(F)cc5)CC4)cc3)c2cc1OC [cabozantinib] is ____.
Response: 3.76
